Each item that follows carries a reported switch fluorescence ratio.
# Tested on: ATP;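 further: ATP exposure 15 min at 22 °C before imaging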
# measurement.description: switch fluorescence ratio, 500 uM ATP over buffer (Cy3 cluster intensity, sum of 5 cycles each) (fold (ratio)); higher = stronger signal-on switching upon ATP binding; sequences stand for … in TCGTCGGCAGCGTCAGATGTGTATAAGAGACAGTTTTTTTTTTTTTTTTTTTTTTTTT…TC
# experimental.setup: aptamer strand: ATP DNA aptamer (quencher-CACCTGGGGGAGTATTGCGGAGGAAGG + anchor), 100 nM annealed; ATP concentration: 500 uM
Enter the number alone.

Example cases with answers are listed next.
seq: GAGGTACAAA
switch fluorescence ratio: 1.01
--
seq: TTTATCAGTG
switch fluorescence ratio: 0.987
--
seq: CGATGTATTT
switch fluorescence ratio: 1.01

Okay, now this sequence:
Entry under test: "ACACTGTATC" . Its switch fluorescence ratio was 1.21
